Test system: Escherichia coli TOP10;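 further: peptides expressed intracellularly from a pBAD plasmid library in pooled LB shake-flask culture, induced with 0.3% L-arabinose, DNA abundance read by NGS, three biological replicates, DESeq2 with apeglm shrinkage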
assay text: shrunken log2 fold change of peptide-encoding DNA abundance (4.5 h post-induction vs induction); higher = less antimicrobial activity (less host growth inhibition)
condition parameters: time post-induction: 4.5 h; library: site-saturation at positions 5, 18, 19, 20
experimental readout: shrunken log2 fold change

sequence text	measured on	experimental readout	measured value
RRIRNRPPRLPRPRPRPDFQPRP	Escherichia coli TOP10	shrunken log2 fold change	-0.156
RRIRKRPPRLPRPRPRPGERPRP	Escherichia coli TOP10	shrunken log2 fold change	-0.116
RRIRHRPPRLPRPRPRPGANPRP	Escherichia coli TOP10	shrunken log2 fold change	-0.0811
RRIRYRPPRLPRPRPRPREPPRP	Escherichia coli TOP10	shrunken log2 fold change	0.419
RRIRHRPPRLPRPRPRPQDQPRP	Escherichia coli TOP10	shrunken log2 fold change	0.0969
RRIRRRPPRLPRPRPRPYWNPRP	Escherichia coli TOP10	shrunken log2 fold change	-0.368
RRIRYRPPRLPRPRPRPREDPRP	Escherichia coli TOP10	shrunken log2 fold change	-0.126
RRIRNRPPRLPRPRPRPIMAPRP	Escherichia coli TOP10	shrunken log2 fold change	-0.187
RRIRPRPPRLPRPRPRPSKWPRP	Escherichia coli TOP10	shrunken log2 fold change	-0.242
RRIRYRPPRLPRPRPRPVADPRP	Escherichia coli TOP10	shrunken log2 fold change	-0.127
RRIRDRPPRLPRPRPRPQTRPRP	Escherichia coli TOP10	shrunken log2 fold change	0.138
RRIRGRPPRLPRPRPRPTLNPRP	Escherichia coli TOP10	shrunken log2 fold change	0.835
RRIRWRPPRLPRPRPRPPTSPRP	Escherichia coli TOP10	shrunken log2 fold change	0.291
RRIRNRPPRLPRPRPRPTDWPRP	Escherichia coli TOP10	shrunken log2 fold change	0.328
RRIRLRPPRLPRPRPRPRWAPRP	Escherichia coli TOP10	shrunken log2 fold change	0.145
RRIRHRPPRLPRPRPRPGHNPRP	Escherichia coli TOP10	shrunken log2 fold change	-0.166
RRIRVRPPRLPRPRPRPWGEPRP	Escherichia coli TOP10	shrunken log2 fold change	0.136
RRIRIRPPRLPRPRPRPVERPRP	Escherichia coli TOP10	shrunken log2 fold change	0.0257
RRIRCRPPRLPRPRPRPWSYPRP	Escherichia coli TOP10	shrunken log2 fold change	-0.441
RRIRSRPPRLPRPRPRPAWPPRP	Escherichia coli TOP10	shrunken log2 fold change	0.49
RRIRGRPPRLPRPRPRPWMHPRP	Escherichia coli TOP10	shrunken log2 fold change	-0.00858
RRIRARPPRLPRPRPRPDGFPRP	Escherichia coli TOP10	shrunken log2 fold change	0.135
RRIRTRPPRLPRPRPRPIDWPRP	Escherichia coli TOP10	shrunken log2 fold change	0.042
RRIRKRPPRLPRPRPRPHSWPRP	Escherichia coli TOP10	shrunken log2 fold change	0.0385
RRIRQRPPRLPRPRPRPYYLPRP	Escherichia coli TOP10	shrunken log2 fold change	-0.253
RRIRTRPPRLPRPRPRPMVCPRP	Escherichia coli TOP10	shrunken log2 fold change	0.0039
RRIRRRPPRLPRPRPRPIKWPRP	Escherichia coli TOP10	shrunken log2 fold change	0.0148
RRIRDRPPRLPRPRPRPVTGPRP	Escherichia coli TOP10	shrunken log2 fold change	0.148
RRIRLRPPRLPRPRPRPMSFPRP	Escherichia coli TOP10	shrunken log2 fold change	-0.284
RRIRNRPPRLPRPRPRPKTQPRP	Escherichia coli TOP10	shrunken log2 fold change	-0.0734
RRIRYRPPRLPRPRPRPYEMPRP	Escherichia coli TOP10	shrunken log2 fold change	-0.104
RRIRSRPPRLPRPRPRPQWRPRP	Escherichia coli TOP10	shrunken log2 fold change	0.11
